Item-by-item account of cGMP Assay (EC50, pM) w/BSA, hNPRA
system.tested: T1, human NPRA (human, UniProt P16066 33-1061)
T1 sequence (looked up): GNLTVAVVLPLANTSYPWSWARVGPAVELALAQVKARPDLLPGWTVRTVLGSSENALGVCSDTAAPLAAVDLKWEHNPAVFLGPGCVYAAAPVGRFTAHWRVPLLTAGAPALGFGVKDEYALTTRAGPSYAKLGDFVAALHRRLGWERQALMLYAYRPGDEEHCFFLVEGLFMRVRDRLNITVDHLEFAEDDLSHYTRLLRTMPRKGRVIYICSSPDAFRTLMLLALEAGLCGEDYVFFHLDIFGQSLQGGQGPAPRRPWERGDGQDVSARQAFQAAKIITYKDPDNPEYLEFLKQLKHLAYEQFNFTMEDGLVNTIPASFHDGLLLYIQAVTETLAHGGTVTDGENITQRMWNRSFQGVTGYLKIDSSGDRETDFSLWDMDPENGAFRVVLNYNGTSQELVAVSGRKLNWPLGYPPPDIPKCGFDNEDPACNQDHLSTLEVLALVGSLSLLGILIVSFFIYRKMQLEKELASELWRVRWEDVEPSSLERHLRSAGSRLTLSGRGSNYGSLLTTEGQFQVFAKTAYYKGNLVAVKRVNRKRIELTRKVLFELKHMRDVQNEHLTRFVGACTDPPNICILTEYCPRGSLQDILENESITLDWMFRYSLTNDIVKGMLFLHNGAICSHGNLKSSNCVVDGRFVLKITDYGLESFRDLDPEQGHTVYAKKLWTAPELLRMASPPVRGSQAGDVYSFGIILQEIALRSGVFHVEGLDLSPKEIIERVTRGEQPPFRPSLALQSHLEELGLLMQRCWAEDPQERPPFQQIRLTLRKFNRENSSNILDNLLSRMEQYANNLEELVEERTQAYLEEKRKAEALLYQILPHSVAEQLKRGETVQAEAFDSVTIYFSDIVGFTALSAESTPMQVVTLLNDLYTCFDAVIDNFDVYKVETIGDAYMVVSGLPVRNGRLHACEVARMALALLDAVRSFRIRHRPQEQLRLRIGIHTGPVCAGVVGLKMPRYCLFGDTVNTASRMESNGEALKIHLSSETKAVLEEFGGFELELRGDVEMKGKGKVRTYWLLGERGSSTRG
assay.text: cell-based or functional assay
Numbered stars: 1 amine (or outer) side, 2 acyl side, 3 side chain; on linkers, the order of the positions; unused ones are H or OH. Bridge positions count the residues as written; N and C are the ends. * marks the point of attachment. thioacetal = thioacetal linkage between two cysteines (intrachain bond at the bracketed Cys); C20 diacid = O=C(O)CCCCCCCCCCCCCCCCCCC(=O)*; γGlu = O=C(O)[C@H](CCC(=O)[*:2])N[*:1]
Just the number please, in pM, no unit attached.

- binder: "EKPRSSCFGKGIDRIGHQSGLGCPSFRHSGSPSSGAPPPSG (N-terminus acylated with HOOC-(CH2)18-CO-(γGlu)-; PEG24 after EKEKEKG; thioacetal linkage between the two bracketed Cys; C-terminal amide) [HOOC-(CH2)18-CO-(γGlu)-EKEKEKG-PEG24-EKPRSS[CFGKGIDRIGHQSGLGC]PSFRHSGSPSSGAPPPSG-NH2]"
  cGMP Assay (EC50, pM) w/BSA, hNPRA: 302000
- binder: "EKPRSSCFGKRIDRIGHYSGLGCPSFRHGSPSSGAPPPS (N-terminus acylated with HOOC-(CH2)18-CO-(γGlu)-; (AEEA)8 after EKEKEKG; thioacetal linkage between the two bracketed Cys; C-terminal amide) [HOOC-(CH2)18-CO-(γGlu)-EKEKEKG-(AEEA)8-EKPRSS[CFGKRIDRIGHYSGLGC]PSFRHGSPSSGAPPPS-NH2]"
  cGMP Assay (EC50, pM) w/BSA, hNPRA: 9550

Task item: Return cGMP Assay (EC50, pM) w/BSA, hNPRA for the following binder: EKPRSSCFGKRIDRIGHQSGLGCPSFRHSGSPSSGAPPPSG (N-terminus acylated with HOOC-(CH2)18-CO-(γGlu)-; PEG24 after EKEKEKG; thioacetal linkage between the two bracketed Cys; C-terminal amide) [HOOC-(CH2)18-CO-(γGlu)-EKEKEKG-PEG24-EKPRSS[CFGKRIDRIGHQSGLGC]PSFRHSGSPSSGAPPPSG-NH2]
Reply: 5300

Task item: State its cGMP Assay (EC50, pM) w/BSA, hNPRA for this binder: EKPRSSCFGKRIDRIGHYSGLGCPSFRHSGSPSSGAPPPSG (N-terminus acylated with HOOC-(CH2)18-CO-(γGlu)-; (AEEA)8 after EKEKEKG; thioacetal linkage between the two bracketed Cys; C-terminal amide) [HOOC-(CH2)18-CO-(γGlu)-EKEKEKG-(AEEA)8-EKPRSS[CFGKRIDRIGHYSGLGC]PSFRHSGSPSSGAPPPSG-NH2]
Reply: 6370

Task item: Specify reported cGMP Assay (EC50, pM) w/BSA, hNPRA for the binder shown: {C20 diacid-γGlu}-EKEKEKGEKPRSSCFGKRIDRIGHQSGLGCPSFRHGSGSPSSGAPPPSG-NH2 (bridge 14-30 via thioacetal) [HOOC-(CH2)18-CO-(γGlu)-EKEKEKGEKPRSS[CFGKRIDRIGHQSGLGC]PSFRHGSGSPSSGAPPPSG-NH2]
Reply: 37600

Task item: Return cGMP Assay (EC50, pM) w/BSA, hNPRA for the following binder: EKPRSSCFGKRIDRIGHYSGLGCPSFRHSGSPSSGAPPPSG (N-terminus acylated with HOOC-(CH2)18-CO-(γGlu)-; PEG24 after EKEKEKG; thioacetal linkage between the two bracketed Cys; C-terminal amide) [HOOC-(CH2)18-CO-(γGlu)-EKEKEKG-PEG24-EKPRSS[CFGKRIDRIGHYSGLGC]PSFRHSGSPSSGAPPPSG-NH2]
Reply: 3980
